Cited source: patent US20190241668A1

# target: T1, TIM-3 (T cell immunoglobulin and mucin-domain containing-3) (human, UniProt Q8TDQ0 22-200, limits assumed)
# T1 construct: also called TIMD-3; HAVCR2
# T1 sequence (looked up): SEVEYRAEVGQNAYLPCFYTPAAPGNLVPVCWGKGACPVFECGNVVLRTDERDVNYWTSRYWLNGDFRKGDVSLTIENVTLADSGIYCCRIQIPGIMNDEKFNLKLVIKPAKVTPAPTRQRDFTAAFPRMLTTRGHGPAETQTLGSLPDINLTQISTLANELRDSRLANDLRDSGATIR
# procedure.text: Biacore, Fab on TIM-3
reported.metric: koff (s⁻¹)
Write the value in s⁻¹ as a bare number.

Req: Which value of koff has been reported for Fab clone 2B9 (Fab, V domains shown, Llama-derived Fab from an immune library; the constant domains of the Fab are not) VH: EVQLQESGPGLVKPSQTLSLTCTVSGASVTTRYNYWSWIRQPPGKGLEWMGAITYSGSTYYSPSLKSRTSISRDTSKNQFTLQLSSVTPEDTAVYYCATEGSSSTGVSRYSFGSWGQGTQVTVSS VL: ATMLTQSPGSLSVVPGESASISCKASQSLTHTDGTTALYWLQQKPGQRPQLLIYEVSVRASGVPDRFTGSGSGSDFTLKINGVKAEDAGVYYCAQVAYYPTFGQGTKVELK in the records?
Resp: 4.87e-05
